# Tested on: ERK5
# Construct: gene MAPK7
# Settings: concentration: 1 μM, replicates: in singlicate; n = 1;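 also: KINOMEscan kinase panel screen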
Property Label: %Inh (%)
Only the number, expressed in %, is required.

Nc1ncnc2scc(-c3ccc(NC(=O)Cc4cc(F)ccc4F)cc3)c12.O=C(O)C(F)(F)F : 28
O=C(Nc1c(F)cccc1F)c1cc(C(=O)c2ccccc2F)c[nH]1 : 0
CCNc1nccc(-c2c(-c3ccc(F)cc3)ncn2C2CCN(C)CC2)n1 : 0
O=C(O)C(F)(F)F.O=c1[nH]ccc2nc(N[C@@H]3CCNC3)nc(Nc3ccc4c(c3)S(=O)(=O)CC4)c12 : 17
CC(C)c1nc(-c2ccc(F)c(NS(=O)(=O)c3c(F)cccc3F)c2)c(-c2ccnc(Nc3ccc(N4CCOCC4)nc3)n2)s1 : 10
Cc1cccc(Nc2nc(NCCN)ncc2C(N)=O)c1 : 0

Enquiry: Dear colleague, I am looking for the recorded %Inh of the following molecule: Cc1ccc(-c2ccc3occ(-c4ccc(S(C)=O)cc4)c3c2)nn1 (stereo not drawn)
Return: 0

Enquiry: # %Inh lookup, item CN(c1ccc(F)c(NC(=O)c2cccc(OC(C)(C)C#N)c2Cl)c1)c1ccc2nc(NC(=O)C3CC3)sc2n1
Return: 4

Enquiry: Returns the measured %Inh for the input molecule. Input: COC(=O)Nc1nc2cc(Oc3ccc(NC(=O)Nc4cccc(SC)c4)cc3)ccc2[nH]1.Cl
Return: 0

Enquiry: What measured %Inh goes with c1ccc(Oc2ccc(Nc3ccnc4cc(-c5ccc(CN6CCCCC6)o5)ccc34)cc2)nc1 ?
Return: 0

Enquiry: Need %Inh of COc1cc(Nc2nccc(N3CCC(NC(=O)Nc4ccc5c(c4)OCO5)C3)n2)cc(OC)c1OC (stereo not drawn) , thanks.
Return: 0

Enquiry: Fill in: %Inh of Cl.O=C(Nc1ccc(Oc2ccc3[nH]c(NC(=O)c4ccco4)nc3c2)cc1)Nc1cc(C(F)(F)F)ccc1F is ___
Return: 0

Enquiry: Param item = O=C(Nc1n[nH]c2cc(-c3cccs3)ccc12)C1CC1 ; retrieve measured %Inh.
Return: 0

Enquiry: If you can, please state the reported %Inh value of O=C(Nc1n[nH]c2nc(-c3ccccc3)ccc12)C1CC1 .
Return: 0

Enquiry: Give its %Inh value. Item: Cc1ccc(Nc2ccnc(Nc3ccc(C)c(F)c3)n2)cc1O.Cl
Return: 26

Enquiry: Form field: reported %Inh of CS(=O)(=O)c1cccc(CNc2nc(Nc3ccc4c(c3)CCC(=O)N4)ncc2C(F)(F)F)c1
Return: 15

Enquiry: Name the recorded %Inh for COc1cc(Nc2nccc(N3CCC(NS(=O)(=O)c4ccc(NC(C)=O)cc4)CC3)n2)cc(OC)c1OC .
Return: 0

Enquiry: Given the molecule Cc1ccc(NC(=O)c2cccc(N3CCCCC3)c2)cc1-c1ccc(C(=O)NCC2CC2)cc1 , what is its reported %Inh?
Return: 0

Enquiry: Return reported %Inh; argument: CCn1c(-c2nonc2N)nc2c(-c3ccccc3)ncc(OCCCN)c21.O=C(O)C(F)(F)F.O=C(O)C(F)(F)F
Return: 0

Enquiry: For the molecule shown here, CC(=O)Nc1cn2nc(Oc3cccc(NC(=O)c4cccc(C(F)(F)F)c4)c3)ccc2n1 , give the reported %Inh.
Return: 0

Enquiry: # get_value(readout='%Inh', item= Fc1cc(Cl)ccc1Nc1ccnc2cc(-c3ccc(CN4CCSCC4)o3)ccc12 )
Return: 0

Enquiry: I would be grateful if you could share the reported %Inh for Cc1nn2c(=O)cc(N3CCO[C@H](C)C3)nc2n1Cc1cccc(Cl)c1Cl .
Return: 0

Enquiry: What value of %Inh has been reported for the following molecule? Fc1cc(Cl)ccc1Nc1ccnc2cc(-c3ccc(CN4CCOCC4)o3)ccc12
Return: 0

Enquiry: Which measured %Inh value corresponds to Nc1cccc(-c2ccc3c(N)n[nH]c3c2)c1 ?
Return: 0

Enquiry: // returns reported %Inh for input CN(C)CCOc1ccc(-c2cc(-c3ccc(Cl)c(O)c3)c(-c3ccncc3)[nH]2)cc1.Cl.Cl
Return: 13

Enquiry: %Inh lookup needed for O=C(Nc1n[nH]c2nc(-c3ccccc3O)ccc12)C1CC1 , thanks.
Return: 0

Enquiry: Field request: %Inh | item: Cc1ccc(O)cc1Nc1ccnc2cc(-c3ccc(CN4CCCCC4)o3)ccc12
Return: 20

Enquiry: I am curious: what %Inh value has been reported for O=C(O)C(F)(F)F.O=c1[nH]ccc2nc(N[C@@H]3CCNC3)nc(Nc3cc(Cl)cc(Cl)c3)c12 ?
Return: 41

Enquiry: If you can, please state the reported %Inh value of COc1cccc(C2=C(Nc3cccc(O)c3)C(=O)NC2=O)c1 .
Return: 0

Enquiry: So what's the measured %Inh for this one? Cc1ccc(NC(=O)c2ccnc(N3CCCCC3)c2)cc1-c1ccc(C(=O)NCC2CC2)cc1
Return: 6

---

// %Inh lookup, one value per entry
# Tested on: ABL2
# Settings: concentration: 1 μM, replicates: in singlicate; n = 1
Express it in %; write the number only.

Recorded %Inh, per entry:
COc1cccc(CC(=O)N2CCc3cc(-c4cn(C)c5ncnc(N)c45)ccc32)c1 [GSK2608899] : 30
Cc1ccccc1CC(=O)N1CCc2cc(-c3cn(C)c4ncnc(N)c34)ccc21 [GSK2603346] : 29
CCn1cnc2c(NCc3ccccc3)ncnc21 [SKF-96418] : 0
Cc1nn2c(=O)cc(N3CCO[C@H](C)C3)nc2n1Cc1cccc(Cl)c1Cl [GSK2373693] : 14
Cl.Cl.NC(CNC(=O)c1cc(Br)c(-c2ccnc3[nH]ccc23)s1)c1ccccc1 (stereo not drawn) [GSK1322949] : 25

API: the following record is the query input.
Enquiry: // query %Inh value for entry Cn1cc(-c2cnc(N)c3c(-c4ccc5c(c4)CCN5C(=O)Cc4ccccc4)csc23)cn1 [GSK2593074]
Return: 81

---

%Inh reference
# Tested on: MYLK
# Settings: concentration: 1 μM, replicates: in singlicate; n = 1
Report only the number, with the unit % understood.

Cn1cc(-c2ccc3c(c2)CCN3C(=O)Cc2cc(F)cc(F)c2F)c2c(N)ncnc21 : 11
Cl.N#CCc1ccc(Nc2nccc(Nc3ccc(Oc4ccccc4)cc3)n2)cc1 : 0
COc1cc(Nc2nccc(N3CCC(NS(=O)(=O)c4ccc(NC(C)=O)cc4)CC3)n2)cc(OC)c1OC : 1
Cc1ccc(C)c(NC(=O)Nc2ccc(C)c(-c3ccc(C(=O)Nc4ccncc4)cc3)c2)c1 : 0
Cl.Cl.NCC(NC(=O)c1cc(-c2cccnc2)c(-c2ccnc3[nH]ccc23)s1)c1ccccc1 (stereo not drawn) : 23

Enquiry: Any idea what %Inh was measured for Cc1ccc(-c2ccc3occ(-c4ccc(S(C)=O)cc4)c3c2)nn1 (stereo not drawn) ?
Return: 0

---

# Tested on: HIPK2
# Settings: concentration: 1 μM, replicates: in singlicate; n = 1
As shown below, each of these compounds has a reported %Inh value.
Supply the numeric figure in %, leaving out any unit text.

Some compounds with recorded %Inh:
Cc1cccc(Nc2nc(NCCN)ncc2C(N)=O)c1 : 0
c1ccc(Oc2ccc(Nc3ccnc4cc(-c5ccc(CN6CCCCC6)o5)ccc34)cc2)nc1 : 0
CCn1c(-c2nonc2N)nc2c(-c3ccccc3)ncc(OCCCN)c21.O=C(O)C(F)(F)F.O=C(O)C(F)(F)F : 0
O=C(Nc1n[nH]c2nc(-c3ccccc3O)ccc12)C1CC1 : 7
COc1cc(Nc2nccc(N3CCC(NC(=O)Nc4ccc5c(c4)OCO5)C3)n2)cc(OC)c1OC (centres unmarked) : 0
COc1cc(Nc2ccnc3cc(-c4ccncc4)ccc23)cc(OC)c1OC.Cl : 0
Cn1cc(-c2ccc3c(c2)CCN3C(=O)Cc2cc(F)cc(F)c2F)c2c(N)ncnc21 : 0
CCn1cnc2c(NCc3ccccc3)ncnc21 : 9
Cl.O=C(Nc1ccc(Oc2ccc3[nH]c(NC(=O)c4ccco4)nc3c2)cc1)Nc1cc(C(F)(F)F)ccc1F : 0
O=C(Nc1n[nH]c2nc(-c3ccccc3)ccc12)C1CC1 : 29

Turning now to a further record.
Enquiry: Entry COC(=O)Nc1nc2ccc(Oc3ccc(CC(=O)Nc4cc(C(F)(F)F)ccc4F)cc3)cc2[nH]1 has what %Inh?
Return: 0

---

# Tested on: MARK4
# Settings: concentration: 1 μM, replicates: in singlicate; n = 1
Property Label: %Inh (%)
Return type: number; implicit unit %.

Use these answered entries as a reference point.
Nc1cccc(-c2ccc3c(N)n[nH]c3c2)c1 : 0
CN(C)CCOc1ccc(-c2cc(-c3ccc(Cl)c(O)c3)c(-c3ccncc3)[nH]2)cc1.Cl.Cl : 0
CCNc1nccc(-c2c(-c3ccc(F)cc3)ncn2C2CCN(C)CC2)n1 : 0

Enquiry: GET /values?readout=%Inh&item= O=C(Nc1n[nH]c2cc(-c3cccs3)ccc12)C1CC1
Return: 35

---

# System: AKT3
# Settings: concentration: 1 μM, replicates: in singlicate; n = 1
y if %Inh is below 80%. n if not; exact matches included in n.

CSc1ccc(NC2=C(c3ccc(Cl)cc3)C(=O)NC2=O)cc1 [SB-317658] : y
Cc1cc(-c2ccnc(Nc3cccc(C#N)c3)n2)cc(C)c1O [GSK1440913] : y

Enquiry: Does this molecule meet the criterion %Inh < 80%? CN(C)CCNS(=O)(=O)c1ccc(-c2ccnc3[nH]ccc23)cc1 [GSK977620]
Return: y

Enquiry: # TODO verify %Inh < 80% strictly for this molecule: CC(C)NCC(Cc1ccccc1)NC(=O)c1cc(Br)c(-c2ccnc3[nH]ccc23)s1.Cl.Cl (centres unmarked) [GSK1383281]
Return: n

Enquiry: Just wondering, is %Inh of Cc1ccc(-c2ccc3occ(-c4ccc(S(C)=O)cc4)c3c2)nn1 (centres unmarked) below 80%?
Return: y
